Target: p38a/MK2 (Homo sapiens (Human), UniProt P49137+Q16539)
Sequence (P49137 46-400): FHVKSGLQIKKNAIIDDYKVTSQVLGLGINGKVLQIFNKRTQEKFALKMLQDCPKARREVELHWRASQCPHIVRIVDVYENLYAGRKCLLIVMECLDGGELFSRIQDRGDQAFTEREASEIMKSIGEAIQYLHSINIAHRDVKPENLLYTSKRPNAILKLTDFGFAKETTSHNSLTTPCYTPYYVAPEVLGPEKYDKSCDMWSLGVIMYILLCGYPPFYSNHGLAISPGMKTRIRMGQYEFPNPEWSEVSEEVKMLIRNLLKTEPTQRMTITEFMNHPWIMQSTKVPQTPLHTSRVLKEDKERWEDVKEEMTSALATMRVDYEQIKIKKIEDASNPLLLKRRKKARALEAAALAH
Sequence (Q16539 whole entry): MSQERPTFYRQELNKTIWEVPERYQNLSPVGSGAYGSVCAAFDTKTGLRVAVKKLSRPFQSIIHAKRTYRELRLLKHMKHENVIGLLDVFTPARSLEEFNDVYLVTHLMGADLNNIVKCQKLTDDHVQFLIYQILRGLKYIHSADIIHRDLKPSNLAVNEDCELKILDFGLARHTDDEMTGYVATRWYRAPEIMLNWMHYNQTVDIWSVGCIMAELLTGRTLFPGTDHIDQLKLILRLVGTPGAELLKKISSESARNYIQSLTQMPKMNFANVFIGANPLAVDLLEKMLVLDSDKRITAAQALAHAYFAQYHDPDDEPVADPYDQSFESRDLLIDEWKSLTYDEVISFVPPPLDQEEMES
Experiment: p38a/MK2 biochemical assay: activation of MK2 by p38, FITC-HSP27 peptide phosphorylation (IMAP FP)
Settings: 10-point 1:3 dilution, top dose 1 μM; 60 pM active p38a, 1 nM inactive MK2, 10 μM ATP, 2 h incubation; read-out: p38a/MK2 (1 μM) Enzyme pIC50 (converted)
Source text: Expression vectors of the recombinant MK2 and PRAK kinases were constructed by cloning of the codon optimized gene sequences of MK2 (Uniprot ID P49137, amino acid fragment F46-H400), or PRAK (Uniprot ID Q81W41, amino acid fragment M1-Q471) into pGEX-4T1 (GE) for over expression of these kinases with N-terminal GST-tag. […]
Listing of entries alongside the reported IC50.
Report only the number, with the unit nM understood.

[2H]C([2H])(Oc1cc(C)n(-c2c(C)cnc(-c3ccnc(CC4(O)CC4)n3)c2F)c(=O)c1Cl)c1ncc(F)cc1F (single isomer, unassigned) [Example 61B]    3.16

Now let's try a different one.
Given the compound [2H]C([2H])(Oc1cc(C)n(-c2c(C)cnc(-n3ccc(C(C)(C)O)n3)c2F)c(=O)c1Cl)c1ncc(F)cc1F [Example 58A] , write its reported IC50. 1.26
